Listing of entries alongside the reported microsomal CLint.
assay: Metabolic stability in mouse liver microsomes; settings: mouse, liver microsomes
Quantity Measured: microsomal CLint (µL/min/mg)

[[record]]
molecule = "Cn1cc(-c2cc(Cl)c(Cl)c3sc4c(c23)CN(C(=O)CO)CC4)cn1"
qualifier_sign = "="
value_observed = 679

[[record]]
molecule = "Cn1cc(-c2cc(Cl)c(Cl)c3sc4c(c23)CN(C(=O)CN)CC4)cn1"
qualifier_sign = "<"
value_observed = 9.6

[[record]]
molecule = "Cn1cc(-c2cc(Cl)c(Cl)c3oc4c(c23)CN(C(=O)CN)CC4)cn1"
qualifier_sign = "="
value_observed = 9.7

